- Test system: Botrytis cinerea
- Protocol Details: Test B: gray mold, preventive spray on tomato seedlings
- Condition: 50 ppm (asterisk); gray mold on tomato; 100 = 100% disease control, 0 = no control
Readout: Test B rating (% disease control) (%)
Give the value, in units of %, as a plain number.

{"columns": ["Compound", "Recorded Number"],
 "data": [
  ["OC(Cn1cncn1)(C1=NOC(c2ccc(F)cc2)C1)c1ccc(F)cc1 (single isomer, unassigned) [Compound 122]", 0]
]}

Q: Can you look up Test B rating (% disease control) on Botrytis cinerea for OC(Cn1cncn1)(C1=NOC(c2ccc(Cl)cc2)C1)c1ccc(Cl)cc1 (single isomer, unassigned) [Compound 123] ?
A: 56

Q: Can you look up Test B rating (% disease control) on Botrytis cinerea for CC(C)(C)C(O)(Cn1cncn1)C1=NOC(c2ccc(Cl)cc2)C1 (single isomer, unassigned) [Compound 133] ?
A: 95

Q: Can you look up Test B rating (% disease control) on Botrytis cinerea for OC(Cn1cncn1)(C1=NOC(c2ccc(F)cc2)C1)c1ccc(F)cc1 (single isomer, unassigned) [Compound 119] ?
A: 0

Q: Can you look up Test B rating (% disease control) on Botrytis cinerea for OC(Cn1cncn1)(C1=NOC(c2ccc(Cl)cc2)C1)c1ccc(Oc2ccccc2)cc1 (single isomer, unassigned) ?
A: 0

Q: Can you look up Test B rating (% disease control) on Botrytis cinerea for OC(Cn1cncn1)(C1=NOC(c2ccc(Cl)cc2)C1)c1ccc(F)cc1F (single isomer, unassigned) [Compound 130] ?
A: 14

Q: Can you look up Test B rating (% disease control) on Botrytis cinerea for CC(O)(Cn1cncn1)C1=NOC(c2ccc(Cl)cc2)C1 (single isomer, unassigned) [Compound 36] ?
A: 0
